- TARGET OR TEST SYSTEM: UniProtKB P50406
- Sequence (P50406 whole entry): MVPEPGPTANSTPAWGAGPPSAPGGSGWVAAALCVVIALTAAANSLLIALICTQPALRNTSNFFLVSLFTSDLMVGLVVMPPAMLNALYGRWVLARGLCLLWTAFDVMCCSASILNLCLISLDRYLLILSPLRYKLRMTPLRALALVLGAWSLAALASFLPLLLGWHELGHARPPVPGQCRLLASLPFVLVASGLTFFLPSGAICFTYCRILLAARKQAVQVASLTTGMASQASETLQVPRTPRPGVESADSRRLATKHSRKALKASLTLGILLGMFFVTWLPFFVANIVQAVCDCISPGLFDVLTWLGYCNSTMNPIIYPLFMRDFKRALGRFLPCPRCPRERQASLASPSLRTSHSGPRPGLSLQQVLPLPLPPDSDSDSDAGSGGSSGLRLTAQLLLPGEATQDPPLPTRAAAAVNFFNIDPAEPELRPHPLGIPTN
- ASSAY: biochemical
- Description: Displacement of [3H]-LSD from human 5-HT6 receptor expresssed in stable HEK cell membrane incubated for 90 mins by microbeta counting method
In this section we review reported pKi values for a set of compounds.
// field semantics: pKi = negative decimal log of concentration (mol/L)

Known pKi results, listed for orientation:
>>> print(df.to_string())
                                   compound  readout_number
0  COc1cc2c3c(c1OC)-c1cc(NS(C)(=O)=O)ccc1CC3N(C)CC2 (racemic)            7.07
1  COc1cc2c3c(c1OCC1CC1)-c1cc(NC(C)=O)ccc1CC3N(C)CC2 (racemic)            5.82
2  COc1cc2c3c(c1OC)-c1cc(NC(N)=O)ccc1CC3N(C)CC2 (racemic)            6.38
3  COc1cc2c3c(c1OCC1CC1)-c1cc(NC(N)=O)ccc1CC3N(C)CC2 (racemic)            6.28
4  COc1cc2c3c(c1OCC1CC1)-c1cc(N)ccc1CC3N(C)CC2 (racemic)            6.88

Ask | Which pKi value belongs to C#CCOc1c(OC)cc2c3c1-c1cc(NS(C)(=O)=O)ccc1CC3N(C)CC2 (racemic) ?
Reply | 6.66

Ask | Return reported pKi; argument: COc1cc2c3c(c1OCC1CC1)-c1cc(NS(C)(=O)=O)ccc1CC3N(C)CC2 (racemic)
Reply | 6.30

Ask | Could you tell me which pKi is on file for C=CCOc1c(OC)cc2c3c1-c1cc(NS(C)(=O)=O)ccc1CC3N(C)CC2 (racemic) ?
Reply | 6.23

// provenance: ChEMBL document CHEMBL4622954
